# method: qHTS assay to identify small molecule antagonists of the peroxisome proliferator-activated receptor delta (PPARd) signaling pathway - cell viability counter screen (AID 743213); further: nearly all actives have a fitted effect of over 50% in size
# conditionLabel: PPARd-bla HEK293H viability, CellTiter-Glo luminescence, 17 h; series mostly up to 62 µM
Inconclusive results are not listed. Activity calls are given as the source filed them. The call rests on the fitted dose curve; in most records, active means well fitted cell-killing curve with a large enough effect in the repeat runs; inconclusive means weak or mixed curves; inactive means no such curve, though single readings can be large or run the other way.
Respond using exactly one of the listed classes: Y for active, N for inactive

These solved cases illustrate the format of a correct answer.
1) O=C(Nc1ccccc1)Nc1cnns1 ... N
2) CCOc1nc(F)cc2nc(S(=O)(=O)Nc3c(Cl)cccc3Cl)nn12 ... N
3) CC(C)(Cl)[N+](=O)[O-] ... N
4) CC(C)N(CCC(C(N)=O)(c1ccccc1)c1ccccn1)C(C)C (stereo not drawn) ... N
5) CCOP(=S)(OCC)Oc1nc(Cl)c(Cl)cc1Cl ... N
6) CCOP(=S)(OCC)SCn1nnc2ccccc2c1=O ... Y
7) O=C(O)COc1ccc(Cl)cc1 ... N
8) CCC(Br)(CC)C(=O)NC(N)=O ... N

## Task # lookup: test call for ClCc1cccc(Cl)c1
## Result N

## Task For this compound, state the assay outcome: COP(=S)(OC)Oc1cc(Cl)c(I)cc1Cl
## Result N

## Task Assay outcome for O=C(O)C(F)(F)C(F)(F)C(F)(F)C(F)(F)C(F)(F)C(F)(F)C(F)(F)C(F)(F)C(F)(F)C(F)(F)F : what was it?
## Result N

## Task Please indicate how the test categorized ClCC(Br)CBr (stereo not drawn) .
## Result N

## Task Which result was noted for this compound in the test: C=CC(=O)OCCCCO
## Result N

## Task Assay result, entry N#Cc1ccc(Cl)cc1 — outcome?
## Result N

## Task Hi, sorry to bother you, what did the test record for CCOC(=O)COc1cc(-c2nn(C)c(OC(F)F)c2Cl)c(F)cc1Cl ?
## Result N

## Task How did this test come out for COC(=O)C(C)N(C(=O)Cc1ccccc1)c1c(C)cccc1C (stereo not drawn) ?
## Result N

## Task Query: recorded result category for CCCN(CCCl)c1c([N+](=O)[O-])cc(C(F)(F)F)cc1[N+](=O)[O-] in this test
## Result N

## Task Which outcome did this test record for the compound ClP(Cl)(Cl)(Cl)Cl ?
## Result N

## Task Any idea what this test logged for CC(c1ccc(O)cc1)(c1ccc(O)cc1)c1ccc(O)cc1 ?
## Result N

====

# tgt: Cytochrome P450 2C9 (Homo sapiens)
# method: Cytochrome P450 Family 2 Subfamily C Member 9 (CYP2C9) small molecule antagonists: luciferase reporter qHTS assay (AID 1671198); further: nearly all actives have a fitted effect of over 50% in size; further: potency means the concentration at half of the fitted maximal effect
# conditionLabel: P450-Glo CYP2C9 enzyme assay, luciferin luminescence; series mostly up to 115 µM
Inconclusive results are not listed. Active and inactive are the calls of the source. Calls follow the shape of the dose curve; as a rule, active = well fitted inhibition curve with a large enough effect in the repeat runs; inconclusive = weak or mixed curves; inactive = no such curve, though single readings can be large or run the other way.
assayReadout: Potency

1) Clc1ccc(C(OCCN2CCCCC2)c2ccccc2)cc1 (stereo not given) ... inactive
2) Cl/C=C\C[N+]12CN3CN(CN(C3)C1)C2 ... inactive
3) Cl/C=C\Cl ... inactive
4) O=S(=O)(O)C(F)(F)C(F)(F)C(F)(F)C(F)(F)F ... 17.9 µM (active)
5) O=C(NCc1cccnc1)Nc1ccc([N+](=O)[O-])cc1 ... 5.03 µM (active)

Reading of Potency for CN1C[C@H](CNC(=O)OCc2ccccc2)C[C@@H]2c3cccc4c3c(cn4C)C[C@H]21 with Cytochrome P450 2C9 (Homo sapiens): inactive

Readout Potency for C=CC(=O)OCCCCO , test system Cytochrome P450 2C9 (Homo sapiens), was inactive

====

# method: qHTS assay to identify small molecule antagonists of the sonic hedgehog signaling (Shh) pathway (AID 1259369); further: nearly all actives have a fitted effect of over 45% in size
# conditionLabel: NIH/3T3 Gli1-Luc reporter, Shh antagonist, luminescence 24 h; series mostly up to 92.4 µM
Records with an inconclusive call do not appear. The source made the active and inactive calls. Calls come from the whole dose curve.
Thanks in advance; please answer with one of these: yes (1) = active, no (0) = inactive

Please review the following examples before continuing.
1. N#Cc1ccc(Cl)cc1 ... no (0)
2. CC(C)O.CC(C)O.OCCN(CCO)CCO.OCCN(CCO)CCO.[Ti] ... no (0)
3. CCc1ccc(C(=O)NN(C(=O)c2cc(C)cc(C)c2)C(C)(C)C)cc1 ... no (0)
4. Clc1cccc(SC2CCNCC2)n1 ... yes (1)
5. IC(I)=C(I)I ... yes (1)

## Task Could you check what this test reported for CN1C(=O)NC(=O)C(C)(C2=CCCCC2)C1=O (stereo not given) ?
## Result no (0)

## Task Dear all, I need the recorded test outcome for C=CC(C)=O , thank you.
## Result no (0)

## Task // return assay outcome for CCCCCC[N+](=O)[O-]
## Result no (0)

====

# method: qHTS RealTime-Glo MT Cell Viability Assay in HEK293 cells - 8 hour (AID 1224887); further: top concentration of the series differs between compounds; nearly all actives have a fitted effect of over 50% in size
# conditionLabel: RealTime-Glo luminescence; series mostly up to 76.8 µM
# From the text: U.S. Tox21 Program National Center for Advancing Translational Sciences [NCATS] NIH Chemical Genomics Center [NCGC] U.S. Environmental Protection Agency [EPA] National Institutes of Environmental Health Sciences [NIEHS] National Toxicology Program [NTP] U.S. Food and Drug Administration [FDA] Tox21 Assay Overview: Measure of cell viability is critical in the cell-base assay. Analysis of cell viability is necessary for the characterization of cell responses to cytotoxic drugs and environmental stress. […]
Results filed as inconclusive are left out. The source made the active and inactive calls. Calls follow the shape of the dose curve; as a rule, active = well fitted cell-killing curve with a large enough effect in the repeat runs; inconclusive = weak or mixed curves, or effect the other way; inactive = flat fitted curve, though single readings scatter.
Bench note: report the call from active, inactive

Some entries whose results are on file:
1) CCCCCCCCOC(=O)c1ccc(C(=O)OCCCCCCCC)c(C(=O)OCCCCCCCC)c1 ... inactive
2) CCOP(=S)(Oc1ccc([N+](=O)[O-])cc1)c1ccccc1 (stereo not drawn) ... inactive
3) CC/C(=N\OC/C=C/Cl)C1=C(O)CC(C2CCOCC2)CC1=O (stereo not drawn) ... inactive

## Task Could you check what this test reported for CCOP(=O)(OCC)SCCSCC ?
## Result inactive

## Task // param item: NCCCNCCCN ; yields the recorded call
## Result inactive

## Task Recorded test call requested for CC(C)(OO)c1ccccc1
## Result inactive

====

# method: qHTS assay to identify small molecule antagonists of the glucocorticoid receptor (GR) signaling pathway - cell viability counter screen (AID 720693); further: nearly all actives have a fitted effect of over 55% in size
# conditionLabel: GR-bla HeLa viability, CellTiter-Glo luminescence, 18 h, with 5 nM dexamethasone present; series mostly up to 58.5 µM
# From the text: National Center for Advancing Translational Sciences [NCATS] NIH Chemical Genomics Center [NCGC] U.S. Environmental Protection Agency [EPA] National Institutes of Environmental Health Sciences [NIEHS] National Toxicology Program [NTP] U.S. Food and Drug Administration [FDA] The Glucocorticoid receptor (GR) is one of the members of the nuclear receptor family of ligand-dependent transcription factors. […] The activation of the reporter gene under culture conditions can be detected by fluorescence intensity. […]
Records with an inconclusive call do not appear. Active and inactive are the calls of the source. Calls follow the shape of the dose curve; as a rule, active = well fitted cell-killing curve with a large enough effect in the repeat runs; inconclusive = weak or mixed curves, or effect the other way; inactive = no such curve, though single readings can be large or run the other way.
Outcomes you can answer with include only these: active, inactive

## Task Fill in: this test's call for CCCCC(CC)COP(=O)(Oc1ccccc1)Oc1ccccc1 (stereo unspecified) is ___
## Result inactive

## Task Could you please tell me the result logged for Nc1nc(=S)[nH][nH]1 in this assay?
## Result inactive

## Task What was the test verdict on [CH3][Sn]([CH3])([Cl])[Cl] ?
## Result inactive

## Task Outcome logged for CCOP(=S)(Oc1ccc([N+](=O)[O-])cc1)c1ccccc1 (stereo unspecified) in this assay:
## Result inactive

## Task Assay result, entry CCBr — outcome?
## Result inactive

## Task Hi, do you know how Clc1cccc(SC2CCNCC2)n1 came out in this test?
## Result inactive

## Task Entry O=[N+]([O-])c1ccccc1CCl : call = ?
## Result inactive

## Task Test call, this compound: COP(=S)(OC)Oc1cc(Cl)c(I)cc1Cl
## Result inactive

## Task I'd appreciate the recorded outcome for O=Cc1ccc(Cl)cc1Cl from this test.
## Result inactive

====

# method: qHTS RealTime-Glo MT Cell Viability Assay in HEK293 cells - 32 hour (AID 1224868); further: nearly all actives have a fitted effect of over 50% in size
# conditionLabel: RealTime-Glo luminescence; series mostly up to 76.8 µM
Records with an inconclusive call do not appear. Activity calls are given as the source filed them. Calls follow the shape of the dose curve; as a rule, active = well fitted cell-killing curve with a large enough effect in the repeat runs; inconclusive = weak or mixed curves, or effect the other way; inactive = flat fitted curve, though single readings scatter.
# valid calls are True (active), False (inactive); nothing else

Solved cases below.
1. C=CCOC(C)=O ... False
2. C#CCOC(C(=O)OCCN(C)C)(c1ccccc1)c1ccccc1 ... False
3. O=C(CCl)c1ccc(Cl)cc1Cl ... True

## Task Please indicate how the test categorized CCCC(Cn1cncn1)c1ccc(Cl)cc1Cl (configuration not stated) .
## Result True

## Task Short answer needed: outcome of this test for CCOP(=O)(OCC)SCCSCC ?
## Result False

## Task I would be grateful if you could indicate the recorded call for O=C(CBr)Nc1ccc(Cl)cc1C(=O)c1ccccc1F .
## Result False

## Task # fetch the recorded call for CC(C)=CCOc1c2occc2cc2ccc(=O)oc12 here
## Result False
